Sourced from paper PMC4831024

Biological target: Ku70/Ku80ΔC heterodimer (human, UniProt P12956 1-609; P13010 1-590)
Sequence (P12956 whole entry, stated change not applied, chain 1 of 2): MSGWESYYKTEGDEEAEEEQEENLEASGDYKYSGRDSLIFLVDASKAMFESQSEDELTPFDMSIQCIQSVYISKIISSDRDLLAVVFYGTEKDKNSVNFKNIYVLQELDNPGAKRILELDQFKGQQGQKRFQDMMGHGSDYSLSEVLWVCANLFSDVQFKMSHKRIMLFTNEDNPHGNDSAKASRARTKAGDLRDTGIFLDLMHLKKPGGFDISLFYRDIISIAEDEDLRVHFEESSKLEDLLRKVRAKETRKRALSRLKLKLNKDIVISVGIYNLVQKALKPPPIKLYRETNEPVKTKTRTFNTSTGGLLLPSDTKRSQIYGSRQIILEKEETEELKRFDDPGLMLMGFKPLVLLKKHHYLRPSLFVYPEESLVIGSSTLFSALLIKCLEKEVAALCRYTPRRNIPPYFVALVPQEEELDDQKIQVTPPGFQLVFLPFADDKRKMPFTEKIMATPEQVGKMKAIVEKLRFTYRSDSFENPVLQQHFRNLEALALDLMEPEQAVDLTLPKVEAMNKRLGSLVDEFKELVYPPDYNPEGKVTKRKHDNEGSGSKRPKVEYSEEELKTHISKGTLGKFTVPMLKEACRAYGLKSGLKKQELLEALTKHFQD
Sequence (P13010 1-590, stated change not applied, chain 2 of 2): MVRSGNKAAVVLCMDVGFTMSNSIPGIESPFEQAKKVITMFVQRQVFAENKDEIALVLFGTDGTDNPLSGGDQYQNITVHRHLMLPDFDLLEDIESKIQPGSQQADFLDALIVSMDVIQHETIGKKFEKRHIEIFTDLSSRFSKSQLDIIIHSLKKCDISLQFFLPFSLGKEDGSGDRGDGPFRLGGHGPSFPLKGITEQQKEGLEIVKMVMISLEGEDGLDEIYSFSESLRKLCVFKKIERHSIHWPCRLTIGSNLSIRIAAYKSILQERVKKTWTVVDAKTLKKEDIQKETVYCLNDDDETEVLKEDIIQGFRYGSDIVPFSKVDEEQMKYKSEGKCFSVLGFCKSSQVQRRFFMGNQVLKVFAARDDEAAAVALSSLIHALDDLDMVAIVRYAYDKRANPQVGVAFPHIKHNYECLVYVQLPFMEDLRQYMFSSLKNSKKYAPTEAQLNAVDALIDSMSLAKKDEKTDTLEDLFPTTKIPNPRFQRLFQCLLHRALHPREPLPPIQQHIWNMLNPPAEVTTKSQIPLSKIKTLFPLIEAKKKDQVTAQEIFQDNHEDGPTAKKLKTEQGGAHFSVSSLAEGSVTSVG
Experiment: FP
Ends that are not written are not given here.
PROPERTY NAME: pKd
Please note pKd is a logarithmic value: minus log10 of concentration in mol/L. Answer with that number alone.

Fluorescein-GGYGSSAERKRRLPVWFAKG [fluorescein-labelled WRN-cA peptide (C-terminal KBM of WRN)] ... 6.10
Fluorescein-GGYGSSAERKRRLPVWFAKGSDTSKKLMDKTKRGGLFS [fluorescein-labelled WRN-cAX peptide (C-terminal KBM plus XLF-like motif of WRN)] ... 6.14

Could you now consider this next binder?
For reference, reported pKd for Fluorescein-GGYGAQQRKCPEWMNVQN [fluorescein-labelled WRN-nA peptide (N-terminal KBM of WRN)] stands at 5.93
